Every entry's value here was drawn from the OligoGym collection.

- ASSAYED_TARGET: C6orf203; note: reference of the scale not given here
- EXPERIMENTAL_PROTOCOL: pooled miR-30 sensor sort-seq; sequence = guide strand
- SETTINGS: shRNA
Here the recorded sensor-assay potency score (higher = more potent) is given for each entry.
ENDPOINT_NAME: sensor-assay potency score (higher = more potent)

>>> print(df.to_string())
   macromolecule_sequence  reported_value
0  TAGTAGATTTTGTAGACCTTAT          -0.878
1  TTCAGGACAACATCATACCGAA          -0.635
2  TATTTTAATAAAAATGTCCTAT          -0.604
3  TATTACTTTTGAGTCTTACGGA         -0.0954
4  TTAAACTTTTCCACCGCCGTAA          -0.414
5  TTACTTTTGAGTCTTACGGAAA           -1.38
6  TTTCACTTTCAGTCTTCTCTTC           0.689
7  TAGTTTTTGACTACAGTAGGAT          -0.319
